The entries below are paired with their reported protein stability index.
B1: CAMK2D (parent)
chain: IVRLHDSISEEGFHYLVFDLVTGG

variants of: B1; assay: protein stability index of a GFP-peptide fusion (GPS, HEK-293T) (PSI 1-6); higher = more stable; settings: c terminus: a fixed tail appended;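 also: lentivirally expressed fusions sorted by FACS into six bins by GFP to DsRed ratio, PSI derived from sequencing read proportions per bin multiplied by bin number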

[Q] Requested read-out: protein stability index. Entry: H5S
[A] 3.02

[Q] Now try L20E .
[A] 2.05

[Q] Now try F18G .
[A] 2
